Test system: SARS-CoV
methodDescription: Inhibition of SARS coronavirus-induced cytopathogenicity in Vero E6 cells at 10 uM
Format: functional
appliedConditions: Severe acute respiratory syndrome-related coronavirus
Recorded inhibition at 10 µM for the following molecules

| smilesRecord | measured |
| --- | --- |
| C=C1CC[C@@H]2[C@](C)(CCC[C@]2(C)C(=O)O)[C@H]1CCC1=CCOC1=O | < 25% |
| CC1=C[C@@H]2[C@@H](CC1)[C@](C)(O)CC[C@H]2C(C)C | 25% |
| CC(C)c1cc2c(cc1O)[C@@]1(C)CCCC(C)(C)[C@@H]1CC2 | < 25% |
| CC(C)c1ccc2c(c1)C(=O)C[C@H]1C(C)(C)CCC[C@]21C | < 25% |
| COc1c(C(C)C)cc2c(c1O)[C@@]1(C)CCCC(C)(C)[C@@H]1C[C@@H]2O | < 25% |

Which inhibition at 10 µM value is on record for `COc1c(C(C)C)cc2c(c1O)[C@@]1(C)CCCC(C)(C)[C@@H]1CC2=O` ? < 25%

Form field: reported inhibition at 10 µM of `CC(C)[C@@H]1NC(=O)[C@H](C)OC(=O)[C@@H](C(C)C)NC(=O)[C@@H](C(C)C)OC(=O)[C@H](C(C)C)NC(=O)[C@H](C)OC(=O)[C@@H](C(C)C)NC(=O)[C@@H](C(C)C)OC(=O)[C@H](C(C)C)NC(=O)[C@H](C)OC(=O)[C@@H](C(C)C)NC(=O)[C@@H](C(C)C)OC1=O` 25%

Values compiled from ChEMBL document CHEMBL1148729.
